B1: HDV Ribozyme (parent)
chain: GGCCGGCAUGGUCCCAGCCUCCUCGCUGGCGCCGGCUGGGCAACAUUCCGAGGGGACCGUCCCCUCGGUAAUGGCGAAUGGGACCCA

Variants of: B1
ASSAY_INFO: self-cleavage, relative activity (ratio to wild type); higher = more cleavage; co-transcriptional
Kindly state self-cleavage for each of the entries shown.
Lab note: write the figure by itself, no unit.

Q. # query: self-cleavage of entry C4G A43C
A. 0.0519

Q. # query: self-cleavage of entry G40C G82C
A. 0.188

Q. # query: self-cleavage of entry G28U G74C
A. 0.0992

Q. # query: self-cleavage of entry G54U G67C
A. 0.694

Q. # query: self-cleavage of entry G10A C24A
A. 0.367

Q. # query: self-cleavage of entry A16C G54U
A. 0.789

Q. # query: self-cleavage of entry C19U C48U
A. 0.0978
